Tested on: rodent lifetime carcinogenesis bioassay, tumor incidence TD50
assay procedure: carcinogenic potency in animals, long-term in vivo studies, CPDB compilation (AID 1745844)
run parameters: mouse; strain ICR; females; in feed; site: liver; lesion: hepatocellular adenoma; dosed 106 weeks; study length 106 weeks

| compound | TD50 (mg/kg/day) |
| --- | --- |
| ClC1=C(Cl)C2(Cl)C3C(Cl)C(Cl)CC3C1(Cl)C2(Cl)Cl (stereo unspecified) | 19.3 |

* * *

Test system: rodent lifetime carcinogenesis bioassay, tumor incidence TD50
assay procedure: carcinogenic potency in animals, long-term in vivo studies, CPDB compilation (AID 1745844)
run parameters: rat; strain Buffalo; females; in feed; site: mammary gland; lesion: adenocarcinoma; dosed 53 weeks; study length 93 weeks

| compound | target desc | TD50 |
| --- | --- | --- |
| CC(=O)N(C(C)=O)c1cccc2c1Cc1ccccc1-2 | rodent lifetime carcinogenesis bioassay, tumor incidence TD50 | 19 mg/kg/day |

* * *

# reported TD50; entries follow
Test system: rodent lifetime carcinogenesis bioassay, tumor incidence TD50
assay procedure: carcinogenic potency in animals, long-term in vivo studies, CPDB compilation (AID 1745844)
run parameters: mouse; strain CDF1; males; in feed; site: lung; lesion: adenoma; dosed 84 weeks; study length 84 weeks
value kind: TD50 (mg/kg/day)

| compound | observed measurement |
| --- | --- |
| Nc1ccc2nc3ccccn3c2n1 | 483 |
| Cc1cnc2ccc3c(nc(N)n3C)c2n1 | 262 |

* * *

Tested on: rodent lifetime carcinogenesis bioassay, tumor incidence TD50
assay procedure: carcinogenic potency in animals, long-term in vivo studies, CPDB compilation (AID 1745844)
run parameters: rat; strain Fischer 344; males; in feed; site: subcutaneous tissue; lesion: fibrosarcoma + sarcoma; dosed 104 weeks; study length 105 weeks
value kind: TD50 (mg/kg/day)

| compound | value kind | observed measurement |
| --- | --- | --- |
| OCC(CO)(CBr)CBr | TD50 | 1080 |

* * *

Test system: rodent lifetime carcinogenesis bioassay, tumor incidence TD50
assay procedure: carcinogenic potency in animals, long-term in vivo studies, CPDB compilation (AID 1745844)
run parameters: mouse; strain Swiss; females; inhaled; site: all sites; lesion: hemangiosarcoma; dosed 78 weeks; study length 104 weeks
value kind: TD50

| compound | value kind | observed measurement |
| --- | --- | --- |
| C=CCl | TD50 | 36.1 mg/kg/day |

* * *

System: rodent lifetime carcinogenesis bioassay, tumor incidence TD50
assay procedure: carcinogenic potency in animals, long-term in vivo studies, CPDB compilation (AID 1745844)
run parameters: rat; strain Fischer 344; males; in feed; site: kidney; lesion: tubule carcinoma; dosed 103 weeks; study length 104 weeks

| compound | target desc | measure unit | TD50 |
| --- | --- | --- | --- |
| COc1ccccc1[N+](=O)[O-] | rodent lifetime carcinogenesis bioassay, tumor incidence TD50 | mg/kg/day | 612 |

* * *

Test system: rodent lifetime carcinogenesis bioassay, tumor incidence TD50
assay procedure: carcinogenic potency in animals, long-term in vivo studies, CPDB compilation (AID 1745844)
run parameters: rat; strain Fischer 344; females; in feed; site: mammary gland; lesion: fibroadenoma; dosed 104 weeks; study length 105 weeks

| compound | TD50 |
| --- | --- |
| OCC(CO)(CBr)CBr | 83 mg/kg/day |

* * *

Tested on: rodent lifetime carcinogenesis bioassay, tumor incidence TD50
assay procedure: carcinogenic potency in animals, long-term in vivo studies, CPDB compilation (AID 1745844)
run parameters: rat; strain Fischer 344; males; by gavage; site: forestomach; lesion: papilloma; dosed 30 weeks; study length 112 weeks
value kind: TD50

| compound | observed measurement |
| --- | --- |
| CCCCCCCCCCCCN(C)N=O | 13.9 mg/kg/day |
